- Tested on: MV-4-11
- method description: Cell growth inhibition (MTS), MV-4-11
- Assay type: cell-based
- protocol conditions: Homo sapiens, MV4-11, 72 h, incubation three days
measured endpoint: GI50 (nM)
Numbers only, in nM.

Guide cases for GI50, answers given:
- compound: "Cc1ccc2c(-c3nc(Nc4cc(CN5C[C@@H](C)NC(C)(C)C5)cc(C5CC5)c4)ncc3Cl)c[nH]c2c1 [Example 25]"
  measured endpoint: "GI50"
  readout value: 9.3
- compound: "C[C@@H]1CN(Cc2cc(Nc3ncc(Cl)c(-c4c[nH]c5cc(F)ccc45)n3)cc(C3CC3)c2)C[C@H](C)N1 [Example 1]"
  measured endpoint: "GI50"
  readout value: 1.2
- compound: "Cc1cnc(Nc2cc(CN3C[C@@H](C)N[C@@H](C)C3)cc(C3CC3)c2)nc1-c1c[nH]c2ccccc12 [Example 13]"
  measured endpoint: "GI50"
  readout value: 2.1
- compound: "Cc1ccc2c(-c3nc(Nc4cc(CN5CC(C)NC(C)C5)cc(C5CC5)c4)ncc3Cl)c[nH]c2c1 (stereo not drawn) [Example 10]"
  measured endpoint: "GI50"
  readout value: 2.8
- compound: "C[C@@H]1CN(Cc2cc(Nc3ncc(Cl)c(-c4c[nH]c5cc(F)ccc45)n3)cc(C3CC3)c2)C[C@H](C)N1CCO [Example 3]"
  measured endpoint: "GI50"
  readout value: 0.3

Please report GI50 for every entry that follows.
1. C[C@@H]1CN(Cc2cc(Nc3ncc(Cl)c(-c4c[nH]c5cc(Cl)ccc45)n3)cc(C3CC3)c2)C[C@H](C)N1 [Example 2]
2. Cc1ccc2c(-c3nc(Nc4cc(CN5C[C@@H](C)N[C@@H](C)C5)cc(C5CC5)c4)ncc3F)c[nH]c2c1 [Example 12]
3. Cc1ccc2c(-c3nc(Nc4cc(CN5C[C@@H](C)N[C@@H](C)C5)cc(C5CC5)c4)ncc3Cl)c[nH]c2c1 [Example 8]
4. Cc1ccc2c(-c3nc(Nc4cc(CN5C[C@H](CO)N[C@H](C)C5)cc(C5CC5)c4)ncc3Cl)c[nH]c2c1 [Example 26]

[3.5, 11, 1.3, 22]

Please report GI50 for every entry that follows.
1. C[C@@H]1CN(Cc2cc(Nc3ncc(Cl)c(-c4c[nH]c5ccccc45)n3)cc(C3CC3)c2)C[C@H](C)N1CCO [Example 4]
2. Cc1ccc2c(-c3nc(Nc4cc(CN5C[C@@H](C)N(CCO)[C@@H](C)C5)cc(C5CC5)c4)ncc3Cl)c[nH]c2c1 [Example 5]

1.7
0.5

====

- measured target: FLT3 WT (Homo sapiens (Human))
- Sequence (P36888 27-993): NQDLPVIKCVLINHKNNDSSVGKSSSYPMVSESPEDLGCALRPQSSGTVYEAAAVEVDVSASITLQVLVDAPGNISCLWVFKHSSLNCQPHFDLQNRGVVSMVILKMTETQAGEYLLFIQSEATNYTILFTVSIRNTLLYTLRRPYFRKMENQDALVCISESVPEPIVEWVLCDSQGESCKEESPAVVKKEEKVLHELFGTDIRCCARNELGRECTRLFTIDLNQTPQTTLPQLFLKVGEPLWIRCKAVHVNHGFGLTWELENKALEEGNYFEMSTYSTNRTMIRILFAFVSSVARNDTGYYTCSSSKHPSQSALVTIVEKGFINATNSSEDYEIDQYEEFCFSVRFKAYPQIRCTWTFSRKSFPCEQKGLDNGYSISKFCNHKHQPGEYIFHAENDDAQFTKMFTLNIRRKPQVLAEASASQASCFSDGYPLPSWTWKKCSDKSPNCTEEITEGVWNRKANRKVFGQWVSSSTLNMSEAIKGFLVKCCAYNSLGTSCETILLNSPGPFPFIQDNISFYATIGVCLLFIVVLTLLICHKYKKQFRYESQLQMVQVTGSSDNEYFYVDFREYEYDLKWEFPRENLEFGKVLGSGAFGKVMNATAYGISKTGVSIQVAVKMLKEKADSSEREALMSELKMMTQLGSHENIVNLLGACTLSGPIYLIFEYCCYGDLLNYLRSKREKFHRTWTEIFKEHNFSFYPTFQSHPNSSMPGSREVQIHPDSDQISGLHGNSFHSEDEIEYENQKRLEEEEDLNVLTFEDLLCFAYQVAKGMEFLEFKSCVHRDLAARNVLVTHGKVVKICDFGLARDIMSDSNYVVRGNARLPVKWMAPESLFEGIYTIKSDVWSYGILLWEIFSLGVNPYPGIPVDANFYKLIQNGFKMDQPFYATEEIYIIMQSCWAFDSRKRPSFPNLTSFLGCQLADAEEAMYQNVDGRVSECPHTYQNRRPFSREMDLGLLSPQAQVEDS
measured endpoint: IC50 (nM)
Answers are plain numbers, in nM.

Guide cases for IC50, answers given:
- smiles string: "C[C@@H]1CN(Cc2cc(Nc3ncc(Cl)c(-c4c[nH]c5cc(Cl)ccc45)n3)cc(C3CC3)c2)C[C@H](C)N1"
  units of measure: "nM"
  IC50: 1.9
- smiles string: "Cc1ccc2c(-c3nc(Nc4cc(CN5C[C@H](CO)N[C@H](C)C5)cc(C5CC5)c4)ncc3Cl)c[nH]c2c1"
  units of measure: "nM"
  IC50: 1.5
- smiles string: "Cc1ccc2c(-c3nc(Nc4cc(C5CC5)cc(CN5C[C@@H](C)N[C@@H](C)C5)c4O)ncc3Cl)c[nH]c2c1"
  units of measure: "nM"
  IC50: 0.4
- smiles string: "COc1cc2c(-c3nc(Nc4cc(CN5C[C@@H](C)N[C@@H](C)C5)cc(C5CC5)c4)ncc3Cl)c[nH]c2cc1C"
  units of measure: "nM"
  IC50: 9.5
- smiles string: "Cc1ccc2c(-c3nc(Nc4cc(CN5C[C@@H](C)NC(C)(C)C5)cc(C5CC5)c4)ncc3Cl)c[nH]c2c1"
  units of measure: "nM"
  IC50: 2.3
- smiles string: "Cc1cc2[nH]cc(-c3nc(Nc4cc(CN5C[C@@H](C)N[C@@H](C)C5)cc(C5CC5)c4)ncc3Cl)c2cc1O"
  units of measure: "nM"
  IC50: 3.7
- smiles string: "Cc1ccc2c(-c3nc(Nc4cc(CN5C[C@@H](C)N[C@@H](C)C5)cc(C5CC5)c4)ncc3F)c[nH]c2c1"
  units of measure: "nM"
  IC50: 1.2

We next turn to a different compound, shown below.
Find the recorded IC50 belonging to C[C@@H]1CN(Cc2cc(Nc3ncc(Cl)c(-c4c[nH]c5cc(CO)ccc45)n3)cc(C3CC3)c2)C[C@H](C)N1 and report it. 0.4
